molecular target: D(2) dopamine receptor (Rattus norvegicus) (UniProt P61169)
Sequence (P61169 whole entry, looked up): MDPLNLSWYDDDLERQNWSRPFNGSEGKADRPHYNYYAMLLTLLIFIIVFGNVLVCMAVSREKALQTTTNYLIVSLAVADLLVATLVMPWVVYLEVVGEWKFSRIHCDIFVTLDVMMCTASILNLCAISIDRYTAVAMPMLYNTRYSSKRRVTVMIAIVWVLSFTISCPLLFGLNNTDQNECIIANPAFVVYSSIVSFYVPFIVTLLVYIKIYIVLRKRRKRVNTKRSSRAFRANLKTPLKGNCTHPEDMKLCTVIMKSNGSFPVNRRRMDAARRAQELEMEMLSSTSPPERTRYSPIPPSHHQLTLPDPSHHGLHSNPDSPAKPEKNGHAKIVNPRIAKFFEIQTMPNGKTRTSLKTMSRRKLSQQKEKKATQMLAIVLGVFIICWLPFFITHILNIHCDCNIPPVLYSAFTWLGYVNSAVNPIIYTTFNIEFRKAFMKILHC
endpointName: pKi
Give bare numbers, as −log10 of the molar value.

Return reported pKi. Input molecule: `CN1C[C@H](C(N)=O)C=C2c3cccc4[nH]c(Br)c(c34)C[C@H]21` 8.70
